This collection of values is drawn from patent US10028966B2.

# experiment: Pharmacokinetics and tissue distribution (lung, plasma, heart, kidney) of co-solvent formulations, intratracheal bolus aerosol
# Assay type: in vivo, Sprague-Dawley rats
# assayContext: Sprague-Dawley, rat, kidney, other: intratracheal bolus aerosol, 4 mg/kg, Pirfenidone, kidney tissue, Mean, Group 1; 0.167 hr; about 4 mg/kg IT aerosol

compound | concentration at 0.167 h, ng/g
Cc1ccc(=O)n(-c2ccccc2)c1 [pirfenidone, 5-methyl-1-phenyl-2-(1H)-pyridone] | 6620

---

# experiment: Co-solvent and surfactant effects on pirfenidone saturation solubility;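 also: samples equilibrated by overnight agitation at ambient temperature, with solubility taken from the supernatant after undissolved solid was removed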
# Assay type: physicochemical
# assayContext: aqueous co-solvent/surfactant solvent system, pH 6.8, aqueous with cosolvent or surfactant or cyclodextrin, thermodynamic from solid, 8% EtOH, 4% PG, 88% phosphate buffer (5 mM), pH 6.8

smilesCode | solubility
Cc1ccc(=O)n(-c2ccccc2)c1 | 30.4 mg/mL

---

# experiment: Pharmacokinetics and tissue distribution (lung, plasma, heart, kidney) of co-solvent formulations, intratracheal bolus aerosol
# Type: in vivo, Sprague-Dawley rats
# assayContext: Sprague-Dawley, rat, heart, other: intratracheal bolus aerosol, 4 mg/kg, Pirfenidone, heart tissue, Mean, Group 6; 0.0667 hr; about 4 mg/kg IT aerosol

smilesCode | concentration at 4 min (ng/g)
Cc1ccc(=O)n(-c2ccccc2)c1 | 6320

---

# experiment: Pharmacokinetics and lung-tissue distribution after oral gavage or intratracheal aerosol
# Format: in vivo, Sprague-Dawley rats
# assayContext: Sprague-Dawley, rat, plasma; oral 70 mg/kg; read-out: Plasma AUC0-6 hrs

compound | unitsSymbol | AUC(0-t)
Cc1ccc(=O)n(-c2ccccc2)c1 [pirfenidone, 5-methyl-1-phenyl-2-(1H)-pyridone] | ng·h/mL | 13500
